Ref: patent US8592448B2

What IC50 was measured for each of the following?
system: MKN45 cells; experiment: MKN45 cell proliferation assay (CellTiter-Glo); assay type: cell-based; details: Homo sapiens, MKN-45, 72 h, MKN45 cell line, 3 days incubation, at least duplicate experiments, read-out: Prolif. IC50

The examples below pair each entry with its known result.
{"COMPOUND": "CC(c1c(Cl)ccc(F)c1Cl)c1c[nH]c2ncc(C3=CCN(C(=O)C(C)(C)N)CC3)cc12 (stereo not shown)", "QUANTITY_NAME": "IC50", "TEST_RESULT": "≤ 100 nM"}
{"COMPOUND": "C[C@H](c1c(Cl)ccc(F)c1Cl)c1c[nH]c2ncc(-c3cnn(CC(=O)N4CCOCC4)c3)cc12", "QUANTITY_NAME": "IC50", "TEST_RESULT": "≤ 100 nM"}
{"COMPOUND": "CC(c1c(Cl)ccc(F)c1Cl)c1c[nH]c2ncc(-c3cnn(C4CCN(C(=O)N(C)C)CC4)c3)cc12 (stereo not shown)", "QUANTITY_NAME": "IC50", "TEST_RESULT": "≤ 100 nM"}
{"COMPOUND": "CC(c1c(Cl)ccc(F)c1Cl)c1c[nH]c2ncc(C3=CCNCC3)cc12 (stereo not shown)", "QUANTITY_NAME": "IC50", "TEST_RESULT": "100 to 1000 nM"}
{"COMPOUND": "CC(c1c(Cl)ccc(F)c1Cl)c1c[nH]c2ncc(-c3cnn(C4CCN(CC(F)(F)F)CC4)c3)cc12 (stereo not shown)", "QUANTITY_NAME": "IC50", "TEST_RESULT": "100 to 1000 nM"}
{"COMPOUND": "CC(c1c(Cl)ccc(F)c1Cl)c1c[nH]c2ncc(C3=CCN(C(=O)[C@@H](C)O)CC3)cc12 (stereo partly shown)", "QUANTITY_NAME": "IC50", "TEST_RESULT": "100 to 1000 nM"}

Now for another entry.
Task item: Item: CC(=O)N1CC=C(c2cnc3[nH]cc(C(C)c4c(Cl)ccc(F)c4Cl)c3c2)CC1 (stereo not shown) Test system: MKN45 cells Read-out: IC50 Value: ?
Reply: 100 to 1000 nM

* * *

target: phosphorylated c-MET (Homo sapiens); construct: endogenous in cells; assay: c-MET cell mechanistic assay (phosphorylated c-MET in MKN45 cells); conditions: MKN45 cell line, four hours incubation, phosphorylated c-MET levels, at least duplicate experiments; read-out: Met mech IC50
QUANTITY_NAME: IC50

{"COMPOUND": "CC(c1c(Cl)ccc(F)c1Cl)c1c[nH]c2ncc(-c3ccc(C(=O)N4CCN(C)CC4)cc3)cc12 (stereo not shown)", "IC50": "≤ 100 nM"}
{"COMPOUND": "CC(=O)N1CC=C(c2cnc3[nH]cc(C(C)c4c(Cl)ccc(F)c4Cl)c3c2)CC1 (stereo not shown)", "IC50": "100 to 1000 nM"}
{"COMPOUND": "CC(c1c(Cl)ccc(F)c1Cl)c1c[nH]c2ncc(-c3cnn(C4CCN(C(N)=O)CC4)c3)cc12 (stereo not shown)", "IC50": "100 to 1000 nM"}
{"COMPOUND": "CC(c1c(Cl)ccc(F)c1Cl)c1c[nH]c2ncc(C3=CCN(C(=O)[C@@H](C)O)CC3)cc12 (stereo partly shown)", "IC50": "≤ 100 nM"}
{"COMPOUND": "CNS(=O)(=O)c1ccc(-c2cnc3[nH]cc(C(C)c4c(Cl)ccc(F)c4Cl)c3c2)cc1 (stereo not shown)", "IC50": "100 to 1000 nM"}

Give IC50 for all compounds that follow.
1. CC(c1c(Cl)ccc(F)c1Cl)c1c[nH]c2ncc(-c3ccc(N)cc3)cc12 (stereo not shown)
2. C[C@H](c1c(Cl)ccc(F)c1Cl)c1c[nH]c2ncc(-c3cnn(C(C)(C)CO)c3)cc12
3. CC(c1c(Cl)ccc(F)c1Cl)c1c[nH]c2ncc(-c3cnn(C4CNC4)c3)cc12 (stereo not shown)
4. C[C@H](c1c(Cl)ccc(F)c1Cl)c1c[nH]c2ncc(-c3ccncc3)cc12
5. CC(c1c(Cl)ccc(F)c1Cl)c1c[nH]c2ncc(-c3cnn(C4CCNCC4)c3)cc12 (stereo not shown)
6. COC(=O)N1CC=C(c2cnc3[nH]cc(C(C)c4c(Cl)ccc(F)c4Cl)c3c2)CC1 (stereo not shown)

Reply:
1: 100 to 1000 nM; 2: ≤ 100 nM; 3: ≤ 100 nM; 4: 100 to 1000 nM; 5: ≤ 100 nM; 6: 100 to 1000 nM

* * *

What pIC50 was measured for each of the following?
molecular target: phosphorylated c-MET (Homo sapiens, UniProt P08581); construct: endogenous in cells; assay: c-MET cell mechanistic assay (phosphorylated c-MET in MKN45 cells); settings: MKN45 cell line, four hours incubation, phosphorylated c-MET levels, at least duplicate experiments; read-out: Met mech IC50
Sequence (P08581 25-1390): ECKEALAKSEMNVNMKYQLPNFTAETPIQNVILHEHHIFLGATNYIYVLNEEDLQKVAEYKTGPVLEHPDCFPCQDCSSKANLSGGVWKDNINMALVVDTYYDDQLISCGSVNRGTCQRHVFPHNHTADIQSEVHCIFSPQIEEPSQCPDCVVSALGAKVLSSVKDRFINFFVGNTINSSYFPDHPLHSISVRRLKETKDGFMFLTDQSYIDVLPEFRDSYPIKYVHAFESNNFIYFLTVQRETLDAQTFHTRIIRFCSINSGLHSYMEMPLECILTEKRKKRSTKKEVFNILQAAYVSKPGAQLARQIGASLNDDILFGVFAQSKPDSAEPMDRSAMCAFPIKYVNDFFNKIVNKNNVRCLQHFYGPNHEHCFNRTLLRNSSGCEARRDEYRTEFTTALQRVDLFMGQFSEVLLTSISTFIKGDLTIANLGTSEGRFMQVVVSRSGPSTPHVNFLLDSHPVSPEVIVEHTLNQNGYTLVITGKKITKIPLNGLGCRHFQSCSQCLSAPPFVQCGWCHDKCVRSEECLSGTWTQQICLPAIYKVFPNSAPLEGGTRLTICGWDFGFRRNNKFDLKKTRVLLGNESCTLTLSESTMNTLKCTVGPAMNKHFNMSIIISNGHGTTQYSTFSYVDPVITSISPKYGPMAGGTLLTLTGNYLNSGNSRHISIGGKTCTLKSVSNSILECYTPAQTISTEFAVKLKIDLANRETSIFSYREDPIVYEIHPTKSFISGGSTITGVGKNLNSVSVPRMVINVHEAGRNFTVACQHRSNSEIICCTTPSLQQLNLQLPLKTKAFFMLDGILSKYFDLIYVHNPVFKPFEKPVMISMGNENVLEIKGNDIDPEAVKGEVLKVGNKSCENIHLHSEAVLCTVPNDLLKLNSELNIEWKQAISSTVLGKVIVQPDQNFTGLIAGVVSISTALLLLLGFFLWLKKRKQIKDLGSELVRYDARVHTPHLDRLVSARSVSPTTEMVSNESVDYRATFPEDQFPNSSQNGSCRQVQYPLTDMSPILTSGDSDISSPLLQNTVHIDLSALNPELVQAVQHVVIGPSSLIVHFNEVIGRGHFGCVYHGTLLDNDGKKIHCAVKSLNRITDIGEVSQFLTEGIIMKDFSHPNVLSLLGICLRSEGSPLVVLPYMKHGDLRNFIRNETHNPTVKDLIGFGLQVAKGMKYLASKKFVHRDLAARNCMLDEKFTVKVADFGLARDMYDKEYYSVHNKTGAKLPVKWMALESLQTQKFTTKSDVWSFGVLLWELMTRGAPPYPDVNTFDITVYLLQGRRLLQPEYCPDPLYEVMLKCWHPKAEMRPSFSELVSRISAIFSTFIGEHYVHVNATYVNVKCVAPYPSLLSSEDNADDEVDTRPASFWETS
pIC50: −log10 of the molar value.

Give pIC50 for all compounds that follow.
1. CC(c1c(Cl)ccc(F)c1Cl)c1c[nH]c2ncc(-c3cnn(C4CN(C=O)C4)c3)cc12 (centres unmarked)
2. C[C@H](c1c(Cl)ccc(F)c1Cl)c1c[nH]c2ncc(C3=CCCNC3)cc12
3. CC(c1c(Cl)ccc(F)c1Cl)c1c[nH]c2ncc(-c3cnn(C(C)(C)C(=O)O)c3)cc12 (centres unmarked)

Reply:
≥ 7.00
6.00 to 7.00
5.00 to 6.00

Give pIC50 for all compounds that follow.
1. CC(c1c(Cl)ccc(F)c1Cl)c1c[nH]c2ncc(-c3cnn(C(C)(C)C(N)=O)c3)cc12 (centres unmarked)
2. CC(c1c(Cl)ccc(F)c1Cl)c1c[nH]c2ncc(-c3cnn(C(C)(C)CO)c3)cc12 (centres unmarked)
3. C[C@H](c1c(Cl)ccc(F)c1Cl)c1c[nH]c2ncc(-c3ccc(C(=O)N4CCNCC4)cc3)cc12
4. CC(c1c(Cl)ccc(F)c1Cl)c1c[nH]c2ncc(-c3ccccc3)cc12 (centres unmarked)
5. CC(c1c(Cl)cccc1Cl)c1c[nH]c2ncc(-c3cnn(C4CCNCC4)c3)cc12 (centres unmarked)

Reply:
1. ≥ 7.00
2. ≥ 7.00
3. ≥ 7.00
4. 5.00 to 6.00
5. ≥ 7.00

* * *

What pIC50 was measured for each of the following?
target: phosphorylated c-MET (Homo sapiens); construct: endogenous in cells; assay: c-MET cell mechanistic assay (phosphorylated c-MET in MKN45 cells); conditions: MKN45 cell line, four hours incubation, phosphorylated c-MET levels, at least duplicate experiments; read-out: Met mech IC50
pIC50: −log10 of the molar value.

The examples below pair each entry with its known result.
{"MOLECULE": "CC(c1c(Cl)ccc(F)c1Cl)c1c[nH]c2ncc(C3=CCN(C=O)CC3)cc12 (stereo not shown) [Example 38]", "pIC50": "6.00 to 7.00"}
{"MOLECULE": "CC(c1c(Cl)ccc(F)c1Cl)c1c[nH]c2ncc(-c3cnn(C4CN(C(=O)N(C)C)C4)c3)cc12 (stereo not shown) [Example 59]", "pIC50": "6.00 to 7.00"}
{"MOLECULE": "CC(c1c(Cl)ccc(F)c1Cl)c1c[nH]c2ncc(-c3cnn(C4CCN(C(=O)N(C)C)CC4)c3)cc12 (stereo not shown) [Example 28]", "pIC50": "≥ 7.00"}

Task item: pIC50 lookup needed for CC(c1c(Cl)ccc(F)c1Cl)c1c[nH]c2ncc(-c3cn(C)cn3)cc12 (stereo not shown) [Example 54] , thanks.
Reply: 6.00 to 7.00

* * *

test system: MKN45 cells; experiment: MKN45 cell proliferation assay (CellTiter-Glo); format: cell-based; details: Homo sapiens, MKN-45, 72 h, MKN45 cell line, 3 days incubation, at least duplicate experiments, read-out: Prolif. IC50
QUANTITY_NAME: IC50

The examples below pair each entry with its known result.
{"MOLECULE": "CC(=O)N1CCC(n2cc(-c3cnc4[nH]cc(C(C)c5c(Cl)ccc(F)c5Cl)c4c3)cn2)CC1 (centres unmarked)", "TEST_TARGET": "MKN45 cells", "TEST_RESULT": "≤ 100 nM"}
{"MOLECULE": "CC(c1c(Cl)ccc(F)c1Cl)c1c[nH]c2ncc(C3=CCN(C(=O)[C@H](C)O)CC3)cc12 (some centres unmarked)", "TEST_TARGET": "MKN45 cells", "TEST_RESULT": "100 to 1000 nM"}
{"MOLECULE": "CC(c1c(Cl)ccc(F)c1Cl)c1c[nH]c2ncc(-c3cnn(C4CCNCC4)c3)cc12 (centres unmarked)", "TEST_TARGET": "MKN45 cells", "TEST_RESULT": "≤ 100 nM"}
{"MOLECULE": "CC(c1c(Cl)ccc(F)c1Cl)c1c[nH]c2ncc(-c3cncnc3)cc12 (centres unmarked)", "TEST_TARGET": "MKN45 cells", "TEST_RESULT": "1000 to 10000 nM"}
{"MOLECULE": "CC(c1c(Cl)ccc(F)c1Cl)c1c[nH]c2ncc(-c3ccc(C(=O)N(C)C)cc3)cc12 (centres unmarked)", "TEST_TARGET": "MKN45 cells", "TEST_RESULT": "100 to 1000 nM"}

Give IC50 for all molecules that follow.
1. CC(c1c(Cl)ccc(F)c1Cl)c1c[nH]c2ncc(-c3ccc(C(=O)NCCO)cc3)cc12 (centres unmarked)
2. CNS(=O)(=O)c1ccc(-c2cnc3[nH]cc(C(C)c4c(Cl)ccc(F)c4Cl)c3c2)cc1 (centres unmarked)
3. CC(c1c(Cl)ccc(F)c1Cl)c1c[nH]c2ncc(-c3cnn(C(C)(C)CO)c3)cc12 (centres unmarked)

Reply:
100 to 1000 nM
1000 to 10000 nM
100 to 1000 nM

Give IC50 for all molecules that follow.
1. CC(c1c(Cl)ccc(F)c1Cl)c1c[nH]c2ncc(-c3ccc(N4CCN(C)CC4)cc3)cc12 (centres unmarked)
2. CC(c1c(Cl)ccc(F)c1Cl)c1c[nH]c2ncc(-c3ccc(C(=O)NCCN4CCOCC4)cc3)cc12 (centres unmarked)
3. CC(c1c(Cl)ccc(F)c1Cl)c1c[nH]c2ncc(-c3ccc(C(=O)NC4CCCCC4)cc3)cc12 (centres unmarked)
4. CC(c1c(Cl)ccc(F)c1Cl)c1c[nH]c2ncc(-c3cccnc3)cc12 (centres unmarked)
5. CC(c1c(Cl)ccc(F)c1Cl)c1c[nH]c2ncc(-c3cn[nH]c3)cc12 (centres unmarked)
6. CC(c1c(Cl)ccc(F)c1Cl)c1c[nH]c2ncc(-c3cnn(C4CCC(=O)CC4)c3)cc12 (centres unmarked)
7. CC(c1c(Cl)ccc(F)c1Cl)c1c[nH]c2ncc(-c3cnn(C4CN(C=O)C4)c3)cc12 (centres unmarked)

Reply:
1: 100 to 1000 nM; 2: 100 to 1000 nM; 3: 1000 to 10000 nM; 4: 100 to 1000 nM; 5: 100 to 1000 nM; 6: ≤ 100 nM; 7: ≤ 100 nM
